The reported numbers originate from patent US11103684B2.

assay: physchem; settings: water, Solubility in Water (mol/L)
Each record here notes measured solubility.

CCN(CC)CCNC(=O)c1ccc(N)cc1 [Procainamide]: 18.6 mM

// next item, solubility requested
Please fill in: solubility reported for Cc1cccc(C)c1NC(=O)C(C)N (centres unmarked) [Tocainide] = 55.7 mM

---

assay: physchem; conditions: water
assay metric: solubility (µM)
Write the answer as a number in µM, unit excluded.

Please fill in: solubility reported for [N]=O [Nitric Oxide] = 2850
